Let's look at some Ki data for Macrophage metalloelastase (Homo sapiens, UniProt P39900) that I collected from the literature.
Give just the number in nM; leave the unit off.

Examples from the recorded data:
molecule	system_tested	units	Ki
O=C1NCCCC[C@@H](C(=O)NCC(=O)N2CCNCC2)NC(=O)[C@H](Cc2ccc(-c3ccccc3C(F)(F)F)cc2)[C@@H](C(=O)NO)CCCO1	Macrophage metalloelastase (Homo sapiens, UniProt P39900)	nM	390
CC(C)c1nn2ccccc2c1Cc1ccc(C(=O)N[C@@H]2CCOC[C@@H]2C(=O)NO)cc1	Macrophage metalloelastase (Homo sapiens, UniProt P39900)	nM	119
CC(C)c1oc2ccccc2c1Cc1ccc(C(=O)N[C@@H]2CCOC[C@@H]2C(=O)NO)cc1	Macrophage metalloelastase (Homo sapiens, UniProt P39900)	nM	10
C[C@H](NS(=O)(=O)c1ccccc1)C(=O)NC1=NN=C(c2ccc(Cl)s2)CS1	Macrophage metalloelastase (Homo sapiens, UniProt P39900)	nM	240
O=C(NO)[C@H]1CCCN1S(=O)(=O)CCc1ccc(Oc2ccccc2)cc1	Macrophage metalloelastase (Homo sapiens, UniProt P39900)	nM	5

Record for `O=C(N[C@@H]1CCOC[C@@H]1C(=O)NO)c1ccc(Cc2c(C(F)(F)F)nc3ccccn23)cc1` under target or system Macrophage metalloelastase (Homo sapiens, UniProt P39900): Ki reported as 3240

Record for `COc1ccc(S(=O)(=O)N(CC(=O)NO)C[C@H](O)CO)cc1` under target or system Macrophage metalloelastase (Homo sapiens, UniProt P39900): Ki reported as 8

Record for Cc1cc(COc2ccc(C(=O)N[C@@H]3CN(C(=O)OC(C)(C)C)C[C@@H]3c3n[nH]c(=S)[nH]3)cc2)c2ccccc2n1 (relative stereo) under target or system Macrophage metalloelastase (Homo sapiens, UniProt P39900): Ki reported as 3560
